- TARGET OR SYSTEM: recombinant cynomolgus monkey CD3ε/δ heterodimer (cynomolgus monkey) (UniProt Q95LI5)
- Sequence (Q95LI5 22-117, stated change not applied, chain 1 of 2): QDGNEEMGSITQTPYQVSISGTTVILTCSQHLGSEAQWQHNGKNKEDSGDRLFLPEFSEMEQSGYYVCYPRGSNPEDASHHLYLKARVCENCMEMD
- Sequence (Q95LI8 22-105, stated change not applied, chain 2 of 2, further chain): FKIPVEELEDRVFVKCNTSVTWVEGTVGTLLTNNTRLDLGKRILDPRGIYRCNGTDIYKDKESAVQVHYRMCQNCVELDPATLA
- TEST SUMMARY: ELISA, coated CD3ε/δ
ENDPOINT LABEL: Absorbance (450 nm)
Note: the reply should be a number with no unit written.

[
  {
    "BINDER": "H03 (antibody, human IgG1, lambda, L234A L235A, V domains shown) VH: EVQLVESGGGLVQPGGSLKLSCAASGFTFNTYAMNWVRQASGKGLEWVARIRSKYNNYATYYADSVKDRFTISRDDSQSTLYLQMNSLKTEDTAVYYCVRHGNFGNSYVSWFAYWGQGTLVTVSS VL: QAVVTQEPSLTVSPGGTVTLTCRSSTGAVTTSNYANWFQQKPGQAPRTLIGGTNKRAPWTPARFSGSLLGGKAALTLSGAQPEDEAEYYCALWYSNLWVFGGGTKLTVLG",
    "Absorbance (450 nm)": 0.085
  }
]

Task: I'd like to know its Absorbance (450 nm). The binder in question is E05 (antibody, human IgG1, lambda, L234A L235A, V domains shown) VH: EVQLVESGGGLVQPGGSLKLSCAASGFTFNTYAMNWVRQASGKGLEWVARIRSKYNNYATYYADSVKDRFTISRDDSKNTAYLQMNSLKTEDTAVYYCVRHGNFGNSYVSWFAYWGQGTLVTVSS VL: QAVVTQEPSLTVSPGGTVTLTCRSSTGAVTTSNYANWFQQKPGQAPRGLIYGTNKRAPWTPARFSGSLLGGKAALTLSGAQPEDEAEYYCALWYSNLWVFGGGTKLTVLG
Output: 0.068

Task: I'd like to know its Absorbance (450 nm). The binder in question is G06 (antibody, human IgG1, lambda, L234A L235A, V domains shown) VH: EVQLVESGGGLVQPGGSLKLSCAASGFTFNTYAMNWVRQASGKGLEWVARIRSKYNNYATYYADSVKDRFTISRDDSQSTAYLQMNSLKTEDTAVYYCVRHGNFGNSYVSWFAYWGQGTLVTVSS VL: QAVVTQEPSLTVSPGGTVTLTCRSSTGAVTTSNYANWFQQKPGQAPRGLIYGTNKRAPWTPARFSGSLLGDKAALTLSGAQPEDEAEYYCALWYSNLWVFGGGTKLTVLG
Output: 0.078

The origin of these recorded values is patent US20200317779A1.
